Exercise: state measured pIC50 for each of the molecules provided.
- TGT: UniProtKB O43497
- TEST PROTOCOL: Human Cav3.1 calcium channel patch clamp assay (SyncroPatch 384PE, HEK-293 natClytin/TASK1+Cav3.1 cell line)
- Assay type: cell-based
- EXPERIMENTAL CONTEXT: voltage dependent block (VDB); read-out: Cav3.1 (VDB) IC50
When answering, recall that pIC50 equals minus log10 of the concentration in mol/L, and write that number alone.

GET /values?readout=pIC50&system=UniProtKB O43497&item= "O=C(CN1CC2(CCC(C(=O)Nc3cc(F)cc(Cl)c3)CC2)C1)NC1(C(F)(F)F)CC1" 7.22

Can you check "O=C(CN1CC2(CCC(C(=O)Nc3cc(F)cc(Cl)c3)CC2)C1)NC1(C(F)(F)F)COC1" next? 6.28

Can you check "N#CC1(CN2CC3(CCC(C(=O)Nc4cc(F)cc(Cl)c4)CC3)C2)CCOCC1" next? 5.86

Can you check "O=C(CN1CC2(CCC(C(=O)Nc3ccc(F)c(Cl)c3)CC2)C1)NC1(C(F)(F)F)CC1" next? 6.66

Can you check "O=C(CN1CC2(CCC(C(=O)Nc3ccc(F)c(C(F)(F)F)c3)CC2)C1)NC1(C(F)(F)F)CC1" next? 6.14

Can you check "CC(C)(C)NC(=O)CN1CC2(CCC(C(=O)Nc3cc(F)cc(C(F)(F)F)c3)CC2)C1" next? 6.60

Can you check "CC1(NC(=O)CN2CC3(CCC(C(=O)Nc4cc(F)cc(C(F)F)c4)CC3)C2)CCC1" next? 6.99

Can you check "O=C(CN1CC2(CCC(C(=O)Nc3cccc(Cl)c3)CC2)C1)NC1(C(F)(F)F)CC1" next? 6.52

----------
- TGT: Human Cav3.1 (Homo sapiens (Human))
- Sequence (O43497 whole entry): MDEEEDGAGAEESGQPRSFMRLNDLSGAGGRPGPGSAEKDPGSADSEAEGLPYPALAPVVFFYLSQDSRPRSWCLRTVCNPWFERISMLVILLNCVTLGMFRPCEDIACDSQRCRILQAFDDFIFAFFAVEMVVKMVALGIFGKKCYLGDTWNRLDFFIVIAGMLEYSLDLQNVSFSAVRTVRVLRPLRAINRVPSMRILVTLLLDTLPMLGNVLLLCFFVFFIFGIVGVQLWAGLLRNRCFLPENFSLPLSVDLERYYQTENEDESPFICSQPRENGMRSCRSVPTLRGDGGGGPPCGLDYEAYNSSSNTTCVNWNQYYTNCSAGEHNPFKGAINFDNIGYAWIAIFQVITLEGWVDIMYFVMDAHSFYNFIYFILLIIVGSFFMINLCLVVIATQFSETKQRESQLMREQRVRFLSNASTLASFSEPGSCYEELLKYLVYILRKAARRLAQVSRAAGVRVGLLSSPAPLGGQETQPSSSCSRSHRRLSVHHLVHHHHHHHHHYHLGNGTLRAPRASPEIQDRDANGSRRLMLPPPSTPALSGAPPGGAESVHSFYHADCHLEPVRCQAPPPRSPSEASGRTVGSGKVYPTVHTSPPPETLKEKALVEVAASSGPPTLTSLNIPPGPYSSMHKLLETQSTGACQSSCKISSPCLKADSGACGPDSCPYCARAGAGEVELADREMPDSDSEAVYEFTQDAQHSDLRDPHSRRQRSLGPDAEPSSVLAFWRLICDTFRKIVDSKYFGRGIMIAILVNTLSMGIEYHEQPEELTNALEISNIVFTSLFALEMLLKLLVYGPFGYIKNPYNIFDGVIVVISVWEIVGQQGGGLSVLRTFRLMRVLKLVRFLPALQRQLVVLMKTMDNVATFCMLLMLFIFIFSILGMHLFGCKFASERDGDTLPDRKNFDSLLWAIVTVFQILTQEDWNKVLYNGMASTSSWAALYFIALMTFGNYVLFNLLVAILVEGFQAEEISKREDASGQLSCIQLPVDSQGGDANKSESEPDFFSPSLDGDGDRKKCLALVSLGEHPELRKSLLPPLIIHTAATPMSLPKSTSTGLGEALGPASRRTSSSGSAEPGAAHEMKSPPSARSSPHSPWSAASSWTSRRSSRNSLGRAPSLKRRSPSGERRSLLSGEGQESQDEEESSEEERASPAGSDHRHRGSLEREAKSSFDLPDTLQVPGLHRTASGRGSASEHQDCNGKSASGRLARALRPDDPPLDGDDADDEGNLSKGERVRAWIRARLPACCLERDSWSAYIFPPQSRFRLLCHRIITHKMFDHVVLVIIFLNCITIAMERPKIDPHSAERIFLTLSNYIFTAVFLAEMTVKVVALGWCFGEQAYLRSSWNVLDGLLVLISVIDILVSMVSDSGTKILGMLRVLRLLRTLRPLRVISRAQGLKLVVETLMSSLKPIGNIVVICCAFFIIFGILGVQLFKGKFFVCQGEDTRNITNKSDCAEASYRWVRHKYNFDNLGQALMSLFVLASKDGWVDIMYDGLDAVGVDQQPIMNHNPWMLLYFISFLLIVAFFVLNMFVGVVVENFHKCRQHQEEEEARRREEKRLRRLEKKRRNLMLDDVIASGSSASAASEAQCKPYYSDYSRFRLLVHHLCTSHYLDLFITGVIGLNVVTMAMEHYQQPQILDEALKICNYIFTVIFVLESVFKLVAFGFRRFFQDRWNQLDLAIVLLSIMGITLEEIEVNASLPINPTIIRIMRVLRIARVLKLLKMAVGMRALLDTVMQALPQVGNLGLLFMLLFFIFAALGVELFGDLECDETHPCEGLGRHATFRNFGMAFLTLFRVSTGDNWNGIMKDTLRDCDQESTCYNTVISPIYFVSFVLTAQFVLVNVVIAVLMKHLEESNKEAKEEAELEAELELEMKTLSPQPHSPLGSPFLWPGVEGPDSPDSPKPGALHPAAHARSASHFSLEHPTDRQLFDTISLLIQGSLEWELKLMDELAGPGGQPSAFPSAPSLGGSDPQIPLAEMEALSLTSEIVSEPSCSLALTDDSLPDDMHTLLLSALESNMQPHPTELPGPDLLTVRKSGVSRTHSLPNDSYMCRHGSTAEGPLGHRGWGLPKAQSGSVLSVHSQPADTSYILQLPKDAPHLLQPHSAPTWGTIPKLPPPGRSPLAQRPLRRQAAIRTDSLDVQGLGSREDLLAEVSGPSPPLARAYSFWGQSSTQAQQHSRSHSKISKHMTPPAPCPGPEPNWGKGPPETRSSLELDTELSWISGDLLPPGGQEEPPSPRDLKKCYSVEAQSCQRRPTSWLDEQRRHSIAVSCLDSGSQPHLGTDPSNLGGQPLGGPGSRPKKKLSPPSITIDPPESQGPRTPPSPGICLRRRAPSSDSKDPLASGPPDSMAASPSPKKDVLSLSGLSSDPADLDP
- TEST PROTOCOL: Human Cav3.1 calcium channel patch clamp assay (SyncroPatch 384PE, HEK-293 natClytin/TASK1+Cav3.1 cell line)
- Type: cell-based
- EXPERIMENTAL CONTEXT: voltage dependent block (VDB); read-out: Cav3.1 (VDB) IC50
EXPERIMENTAL READOUT: IC50 (nM)
API: value field is a number in nM; no unit string.

GET /values?readout=IC50&system=Human Cav3.1 (Homo sapiens (Human))&item= O=C(Nc1cc(F)cc(C(F)F)c1)C1CCC2(CC1)CN(CC(=O)N1CCOCC1)C2 [Example 41] 846

Can you check CC1(OC(=O)NCCN2CC3(CCC(C(=O)Nc4cc(F)cc(Cl)c4)CC3)C2)CC1 [Example 81] next? 307

Can you check O=C(Nc1cc(F)cc(Cl)c1)C1CCC2(CC1)CN(Cc1cccc(C(F)F)c1)C2 [Example 19] next? 624

Can you check COc1cc(F)cc(NC(=O)C2CCC3(CC2)CN(CC2(C#N)CCCCC2)C3)c1 [Example 96] next? 814

----------
- TGT: Human Cav3.1 (Homo sapiens (Human))
- TEST PROTOCOL: Human Cav3.1 calcium channel patch clamp assay (SyncroPatch 384PE, HEK-293 natClytin/TASK1+Cav3.1 cell line)
- Type: cell-based
- EXPERIMENTAL CONTEXT: voltage dependent block (VDB); read-out: Cav3.1 (VDB) IC50
The label satisfied is reserved for IC50 strictly under 500 nM; not satisfied covers values equal to or above it.

Is IC50 of O=C(NC12CCC(CC1)CC2)C1CCC2(CC1)CN(CC1(F)CCC(F)(F)CC1)C2 [Example 149] strictly below 500 nM? not satisfied

Can you check O=C(CN1CC2(CCC(C(=O)Nc3cc(F)cc(Cl)c3)CC2)C1)NC1CCCC1 [Example 21] next? satisfied

Can you check Cc1cc(NC(=O)C2CCC3(CC2)CN(CC(=O)NC2(C(F)(F)F)CC2)C3)ccc1F [Example 132] next? satisfied

Can you check O=C(CN1CC2(CCC(C(=O)NC34CCC(CC3)C4)CC2)C1)NC1(C(F)(F)F)CC1 [Example 150] next? not satisfied

Can you check CC(C)(C)ONC(=O)CN1CC2(CCC(C(=O)Nc3cc(F)cc(Cl)c3)CC2)C1 [Example 67] next? not satisfied

Can you check COc1cc(NC(=O)C2CCC3(CC2)CN(CC(=O)NC2(C(F)(F)F)CC2)C3)ccc1F [Example 125] next? not satisfied

Can you check CC(C)(NC(=O)CN1CC2(CCC(C(=O)Nc3cc(F)cc(Cl)c3)CC2)C1)C(F)(F)F [Example 16] next? satisfied

Can you check CC1(C)CCC(=O)N1CCN1CC2(CCC(C(=O)Nc3cc(F)cc(C(F)F)c3)CC2)C1 [Example 71] next? not satisfied

Can you check O=C(Nc1cc(F)cc(C(F)F)c1)C1CCC2(CC1)CN(CC(F)(F)C1CCCCC1)C2 [Example 92] next? not satisfied

Can you check O=C(NC12CCC(CC1)CC2)C1CCC2(CC1)CN(CC1(O)CCC(F)(F)CC1)C2 [Example 155] next? not satisfied

Can you check CCC(C)(C)NC(=O)CN1CC2(CCC(C(=O)Nc3cc(F)cc(C(F)F)c3)CC2)C1 [Example 27] next? satisfied

Can you check COCC(C)(C)NC(=O)CN1CC2(CCC(C(=O)Nc3cc(F)cc(C(F)F)c3)CC2)C1 [Example 45] next? satisfied

Can you check Cc1cc(F)cc(C(=O)NCC2CCC3(CC2)CN(CC(=O)NC(C)(C)C)C3)c1 [Example 144] next? not satisfied

Can you check N#CC1(CN2CC3(CCC(C(=O)Nc4cc(F)cc(OC(F)F)c4)CC3)C2)CCCCC1 [Example 133] next? satisfied

Can you check N#CC1(CN2CC3(CCC(C(=O)Nc4cc(F)cc(Cl)c4)CC3)C2)CC1 [Example 118] next? not satisfied

Can you check CC(C)(C)NC(=O)CN1CC2(CCC(C(=O)NC34CCC(CC3)CC4)CC2)C1 [Example 8] next? not satisfied
